- target.of.assay: IMP-1 (Serratia marcescens)
- Sequence (P52699 19-246, looked up, species assumed): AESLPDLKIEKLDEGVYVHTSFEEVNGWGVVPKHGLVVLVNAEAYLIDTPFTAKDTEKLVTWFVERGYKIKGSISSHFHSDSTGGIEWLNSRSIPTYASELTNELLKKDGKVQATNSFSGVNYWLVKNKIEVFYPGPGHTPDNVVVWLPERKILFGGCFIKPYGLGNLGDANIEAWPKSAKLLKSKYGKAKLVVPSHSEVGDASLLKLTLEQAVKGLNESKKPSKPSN
- assay.protocol: Enzyme activity: determination of IC50, fluorescence assay with CCF2-FA substrate
- Assay type: biochemical
- condition.set: IMP-1 enzyme 2 pM, CCF2-FA 1.25 μM, 2 hours at 25° C.; read-out: IMP1 IC50
Reported log10 IC50 is given for each of the following molecules.
measured.attribute: log10 IC50 (log10 of the value in nM)

[
  {
    "molecule": "CCC[C@H](C(=O)O)[C@H](Cc1ccc(C(=O)NCC2CC2)cc1)c1nnn[nH]1",
    "log10 IC50": 2.86
  },
  {
    "molecule": "CC(C)C[C@H](C(=O)O)[C@H](Cc1ccc(N2CC(CCO)C2)nc1)c1nnn[nH]1",
    "log10 IC50": 2.23
  },
  {
    "molecule": "CCC[C@H](C(=O)O)[C@H](Cc1ccccc1-c1cccc(C(N)=O)c1)c1nn[nH]n1",
    "log10 IC50": 2.63
  },
  {
    "molecule": "CC(C)C[C@H](C(=O)O)[C@H](Cc1ccc(NCC2CNCCC2O)nc1)c1nnn[nH]1 (stereo partly shown)",
    "log10 IC50": 2.97
  },
  {
    "molecule": "CC(C)C[C@H](C(=O)O)[C@H](Cc1ccc(C2=CCCNC2)c(F)c1)c1nn[nH]n1 [Example 450, 2,2,2-trifluoroacetate]",
    "log10 IC50": 2.14
  },
  {
    "molecule": "CC(C)C[C@H](C(=O)O)[C@H](Cc1ccc(COCCN2CCNCC2)c(F)c1)c1nn[nH]n1.O=C(O)C(F)(F)F",
    "log10 IC50": 2.33
  },
  {
    "molecule": "CCC[C@@H](C(=O)O)[C@H](Cc1ccc(-c2ccc3nnn(C)c3c2)cc1)c1nnn[nH]1",
    "log10 IC50": 3.67
  },
  {
    "molecule": "CCC[C@H](C(=O)O)[C@H](Cc1ccc(C2CCNCC2)nc1)c1nnn[nH]1",
    "log10 IC50": 3.54
  },
  {
    "molecule": "CC(C)C[C@H](C(=O)O)[C@H](Cc1ccc(Oc2ccccc2N2CCNCC2)nc1)c1nn[nH]n1 [Example 372]",
    "log10 IC50": 3.20
  },
  {
    "molecule": "CC(C)C[C@H](C(=O)O)[C@H](Cc1ccc(NC2CNCc3ccccc32)nc1)c1nnn[nH]1 (stereo partly shown)",
    "log10 IC50": 3.00
  },
  {
    "molecule": "CC(C)C[C@H](C(=O)O)[C@H](Cc1ccc(N2CC3(CN(C)C(=O)O3)C2)nc1)c1nnn[nH]1",
    "log10 IC50": 2.48
  },
  {
    "molecule": "CCC[C@H](C(=O)[O-])[C@H](Cc1ccc(C2CCC[N+](C)(C)C2)nc1)c1nnn[nH]1 (stereo partly shown)",
    "log10 IC50": 4.20
  },
  {
    "molecule": "CCC[C@H](C(=O)O)[C@H](Cc1ccc(C(=O)O)cc1)c1nn[nH]n1",
    "log10 IC50": 2.93
  },
  {
    "molecule": "CCC[C@H](C(=O)O)[C@H](Cc1cccc(-c2ccc(NS(C)(=O)=O)cc2)c1)c1nn[nH]n1",
    "log10 IC50": 1.34
  },
  {
    "molecule": "CCC[C@H](C(=O)O)[C@H](Cc1ccccc1-c1ccc(C2CCNCC2)cc1)c1nn[nH]n1",
    "log10 IC50": 2.08
  },
  {
    "molecule": "CCC[C@H](C(=O)O)[C@H](Cc1cnc(SC)nc1)c1nnn[nH]1",
    "log10 IC50": 4.15
  },
  {
    "molecule": "CC(C)C[C@H](C(=O)O)[C@H](Cc1ccc(CN2CCC(O)C2)c(F)c1)c1nn[nH]n1.O=C(O)C(F)(F)F (stereo partly shown) [Example 439, 2,2,2-trifluoroacetate]",
    "log10 IC50": 2.68
  },
  {
    "molecule": "CCC[C@H](C(=O)O)[C@H](Cc1ccc(-c2cnc(CO)s2)cc1)c1nnn[nH]1",
    "log10 IC50": 1.66
  },
  {
    "molecule": "CC(C)C[C@H](C(=O)O)[C@H](Cc1ccc(CCN)c(F)c1)c1nn[nH]n1.O=C(O)C(F)(F)F [Example 445, 2,2,2-trifluoroacetate]",
    "log10 IC50": 2.84
  },
  {
    "molecule": "CCC[C@H](C(=O)O)[C@H](Cc1ccc(C(=O)N(C)C)cc1)c1nnn[nH]1",
    "log10 IC50": 2.11
  },
  {
    "molecule": "CCC[C@H](C(=O)O)[C@H](Cc1ccccc1-c1ccc(NS(C)(=O)=O)cc1)c1nn[nH]n1",
    "log10 IC50": 2.36
  },
  {
    "molecule": "CCC[C@H](C(=O)O)[C@H](Cc1cccc(-c2cnc(N)c(F)c2)c1)c1nn[nH]n1",
    "log10 IC50": 2.23
  },
  {
    "molecule": "CCC[C@H](C(=O)O)[C@H](Cc1ccc(C(=O)NCCN)cc1)c1nnn[nH]1",
    "log10 IC50": 3.73
  },
  {
    "molecule": "CCC[C@H](C(=O)O)[C@H](Cc1cccc(-c2ccc(N3CCOCC3)nc2)c1)c1nn[nH]n1",
    "log10 IC50": 2.51
  },
  {
    "molecule": "CNC(=O)C1CCCN(c2ccc(C[C@H](c3nnn[nH]3)[C@H](CC(C)C)C(=O)O)cn2)C1 (stereo partly shown)",
    "log10 IC50": 2.18
  }
]
